Here, each record is paired with measured viability, T/C data.
Test system: K98450-129-R-PDC multicell spheroids, viability;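 note: spheroids exposed to agents for seven days before read-out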
Assay: Anticancer human tumor K98450-129-R-PDC patient-derived colon adenocarcinoma cell line growth inhibition [PI3K]
Settings: second compound 3.16 µM; first compound 1 µM; hits give low values

Use these answered entries as a reference point.
compound: CC(Cn1ccc(-c2ccc(C#N)c(Cl)c2)n1)NC(=O)c1cc(C(C)O)[nH]n1 (stereo not drawn) + Cc1nc(NC(=O)N2CCCC2C(N)=O)sc1-c1ccnc(C(C)(C)C(F)(F)F)c1
viability, T/C: 84%
--
compound: C[C@@H](NC(=O)c1ncnc(N)c1Cl)c1ncc(C(=O)Nc2cc(C(F)(F)F)c(Cl)cn2)s1 + Cc1nc(NC(=O)N2CCCC2C(N)=O)sc1-c1ccnc(C(C)(C)C(F)(F)F)c1
viability, T/C: 91.7%

Task: Retrieve viability, T/C on K98450-129-R-PDC multicell spheroids, viability; query C=CC(=O)N1CCN(c2nc(=O)n(-c3c(C)ccnc3C(C)C)c3nc(-c4c(O)cccc4F)c(F)cc23)C(C)C1 (stereo not drawn) + CC(Nc1ncnc2nc[nH]c12)c1cc2cccc(Cl)c2c(=O)n1-c1ccccc1
Result: 60.5%

Value source: PubChem BioAssay AID1963961
